Test system: P388 leukemia ip, CD2F1 mice, survival T/C
Assay: NCI In Vivo Anticancer Drug Screen. Data for tumor model P388 Leukemia (intraperitoneal) in CD2F1 (CDF1) mice
Conditions: endpoint: median survival time; dose: 200.0 mg/kg/injection; schedule: Q01DX009 (ip); vehicle: saline; higher = longer survival
Inconclusive results and toxic doses are left out.
Measured T/C accompanies every entry in the list below.
Observed Property: T/C

>>> measurement("CNC(=S)N/N=C(\\c1ccccc1)c1ccccn1")
"100 % of control"
>>> measurement("CN1OC2(CCCCC2)n2c(=O)c3ccccc3c(=O)n2C1c1ccccc1 (stereo unspecified)")
"95 % of control"
>>> measurement("CC1(c2ccccn2)OCCO1")
"108 % of control"
>>> measurement("CSC(=S)N=Nc1c(O)[nH]c2ccccc12")
"99 % of control"
>>> measurement("CC(=O)Nc1cc(C)ns1")
"89 % of control"
>>> measurement("Cc1cn(C2CC(F)C(CO)O2)c(=O)[nH]c1=O (stereo unspecified)")
"101 % of control"
>>> measurement("O=S1(=O)CCN(Cc2ccncc2)CC1")
"100 % of control"
>>> measurement("CN1CCN(S(=O)(=O)c2cnccc2N2CCN(CCO)CC2)CC1")
"97 % of control"
>>> measurement("CC(C)(C)OC(=O)NC(CC(=O)O)C(=O)O (stereo unspecified)")
"104 % of control"
>>> measurement("CNC(=O)n1cc(Cl)ccc1=O")
"119 % of control"
>>> measurement("COc1ccc(CCN)cc1OC")
"106 % of control"
>>> measurement("N#C/C(=N\\O)C(N)=O")
"98 % of control"
>>> measurement("CC(=O)c1ccc(OCc2ccccc2)cc1OCc1ccccc1")
"98 % of control"
>>> measurement("O=C1CC(=O)OCCOCCOCCO1")
"101 % of control"
>>> measurement("C/C=C(\\C)C(N)=O")
"95 % of control"
>>> measurement("CON(C)c1nc(N(C)C)nc(N(C)C)n1")
"96 % of control"

====

Test system: P388 leukemia ip, CD2F1 mice, survival T/C
Test: NCI In Vivo Anticancer Drug Screen. Data for tumor model P388 Leukemia (intraperitoneal) in CD2F1 (CDF1) mice
Settings: endpoint: median survival time; dose: 240.0 mg/kg/injection; schedule: Q01DX005 (ip); vehicle: saline with Tween-80; higher = longer survival
Inconclusive results and toxic doses are left out.
Measured T/C accompanies every entry in the list below.
Observed Property: T/C

>>> measurement("O=C1c2ccsc2CN2C(=O)CCC12 (stereo not given)")
"110 % of control"
>>> measurement("CC1COC(C)(C)P(c2ccccc2)C1 (stereo not given)")
"106 % of control"
>>> measurement("O=c1ssc2ncccc12")
"117 % of control"
>>> measurement("CC1(C)Cc2ccccc2/C1=C/c1ccccn1")
"108 % of control"
>>> measurement("NC(=O)C(=O)NNC(=O)CCn1[nH]c(=O)c(Cl)c(Cl)c1=O")
"98 % of control"
>>> measurement("COC(=O)[C@]1(CC[N+](=O)[O-])N=C(c2ccccc2)O[C@@H]1C")
"113 % of control"
>>> measurement("O=c1[nH]ccn1-c1ccccc1")
"97 % of control"
>>> measurement("CCCCOc1ccc2nc(C)cc(N=[N+]=[N-])c2c1")
"92 % of control"
>>> measurement("CCCCc1c(C#N)c(=O)n2c(N)c(C#N)cnc2c1SC")
"87 % of control"
>>> measurement("CCOC(=O)C1Cc2c(OC)cc(OC)cc2OC1=O (stereo not given)")
"92 % of control"
